Attribution: patent US20250120932A1

experiment: Oral delivery of unformulated Bumetanide Dibenzylamide in Beagle dogs, pharmacokinetics and bioavailability; type: in vivo; conditions: Beagle, dog, plasma, oral, 30 mg/kg, Plasma Bumetanide Dibenzylamide concentration, oral non-formulated 30 mg/kg, 6 h

compound | concentration at 6 h, ng/mL
CCCCNc1cc(C(=O)N(Cc2ccccc2)Cc2ccccc2)cc(S(N)(=O)=O)c1Oc1ccccc1 [Bumetanide Dibenzylamide] | 151

====

assay: Pharmacokinetic study in cynomolgus monkeys after oral (nasogastric) gavage, sublingual and intravenous administration; assay type: in vivo; conditions: cynomolgus monkey, plasma, other: sublingual, 5 mg/kg, Plasma Bumetanide Dibenzylamide concentration, Mean, monkey, SL, dose column 5 mg/kg (title 30 mg/kg), Fourth Formulation (Form 2), 2.0 h, N=4

molecule | concentration at 2 h
CCCCNc1cc(C(=O)N(Cc2ccccc2)Cc2ccccc2)cc(S(N)(=O)=O)c1Oc1ccccc1 [Bumetanide Dibenzylamide] | 0.155 ng/mL
